- Tested on: RAW 264.7 cells
- ASSAY_INFO: Nitric oxide suppression assay (IFNγ-induced NO production)
- Format: cell-based, mouse
- RUN_CONDITIONS: average of ratios from replicate experiments; benchmark RTA 402
- Protocol: Tissue Culture. […] Afterwards, air bubbles were removed using ethanol vapor and absorbance was measured using a Spectramax M2e plate reader with a wavelength set to 525 nm. Viability was assessed using WST-1 cell proliferation reagent from Roche (Basel, Switzerland). […] Absorbance was measured using a Spectramax M2e plate reader with wavelengths set to 440 nm and 700 nm. […] IC50 values were calculated with a dependence on WST1 viability using Excel and/or GraphPad Prism (San Diego, CA).
METRIC: NO IC50 Relative to RTA 402 (fold) (Mean ± SD)
Could you kindly put the unit after your number?

Query: Note down NO IC50 Relative to RTA 402 (fold) (Mean ± SD) recorded for Cc1noc([C@]23CCC(C)(C)C[C@H]2[C@H]2C(=O)C=C4[C@@]5(C)C=C(C#N)C(=O)C(C)(C)[C@@H]5CC[C@@]4(C)[C@]2(C)CC3)n1 [CC2, reference compound]
Reply: 0.70 ± 0.18 fold

Query: Note down NO IC50 Relative to RTA 402 (fold) (Mean ± SD) recorded for CC(C)c1noc([C@]23CCC(C)(C)C[C@H]2[C@H]2C(=O)C=C4[C@@]5(C)C=C(C#N)C(=O)C(C)(C)[C@@H]5CC[C@@]4(C)[C@]2(C)CC3)n1 [Compound T27]
Reply: 3.72 fold

Query: Note down NO IC50 Relative to RTA 402 (fold) (Mean ± SD) recorded for C[C@@H]1C(=O)C(C#N)=C[C@]2(C)C3=CC(=O)[C@@H]4[C@@H]5CC(C)(C)CC[C@]5(c5nc(C(F)F)no5)CC[C@@]4(C)[C@]3(C)CC[C@@H]12 [Compound T35]
Reply: 1.21 ± 0.21 fold

Query: Note down NO IC50 Relative to RTA 402 (fold) (Mean ± SD) recorded for COC(=O)NCCc1noc([C@]23CCC(C)(C)C[C@H]2[C@H]2C(=O)C=C4[C@@]5(C)C=C(C#N)C(=O)C(C)(C)[C@@H]5CC[C@@]4(C)[C@]2(C)CC3)n1 [Compound T17]
Reply: 0.48 fold

Query: Note down NO IC50 Relative to RTA 402 (fold) (Mean ± SD) recorded for Cn1nnc([C@]23CCC(C)(C)C[C@H]2[C@H]2C(=O)C=C4[C@@]5(C)C=C(C#N)C(=O)C(C)(C)[C@@H]5CC[C@@]4(C)[C@]2(C)CC3)n1 [Compound T21]
Reply: 0.76 ± 0.36 fold

Query: Note down NO IC50 Relative to RTA 402 (fold) (Mean ± SD) recorded for CC1(C)CC[C@]2(c3nc(C4CCCC4)no3)CC[C@]3(C)[C@H](C(=O)C=C4[C@@]5(C)C=C(C#N)C(=O)C(C)(C)[C@@H]5CC[C@]43C)[C@@H]2C1 [Compound T32]
Reply: 12.84 fold

Query: Note down NO IC50 Relative to RTA 402 (fold) (Mean ± SD) recorded for COCCn1nnc([C@]23CCC(C)(C)C[C@H]2[C@H]2C(=O)C=C4[C@@]5(C)C=C(C#N)C(=O)C(C)(C)[C@@H]5CC[C@@]4(C)[C@]2(C)CC3)n1 [Compound T9]
Reply: 0.82 fold

Query: Note down NO IC50 Relative to RTA 402 (fold) (Mean ± SD) recorded for CCc1noc([C@]23CCC(C)(C)C[C@H]2[C@H]2C(=O)C=C4[C@@]5(C)C=C(C#N)C(=O)C(C)(C)[C@@H]5CC[C@@]4(C)[C@]2(C)CC3)n1 [Compound T23]
Reply: 1.93 ± 0.54 fold

Query: Note down NO IC50 Relative to RTA 402 (fold) (Mean ± SD) recorded for C[C@@H]1C(=O)C(C#N)=C[C@]2(C)C3=CC(=O)[C@@H]4[C@@H]5CC(C)(C)CC[C@]5(c5noc(CF)n5)CC[C@@]4(C)[C@]3(C)CC[C@@H]12 [Compound T39]
Reply: 0.42 fold

Query: Note down NO IC50 Relative to RTA 402 (fold) (Mean ± SD) recorded for CC1(C)CC[C@]2(c3nnn(CCF)n3)CC[C@]3(C)[C@H](C(=O)C=C4[C@@]5(C)C=C(C#N)C(=O)C(C)(C)[C@@H]5CC[C@]43C)[C@@H]2C1 [Compound T10]
Reply: 1.62 ± 0.16 fold
